study.system: Neuronal acetylcholine receptor subunit alpha-7 (Homo sapiens)
Sequence (P36544 whole entry): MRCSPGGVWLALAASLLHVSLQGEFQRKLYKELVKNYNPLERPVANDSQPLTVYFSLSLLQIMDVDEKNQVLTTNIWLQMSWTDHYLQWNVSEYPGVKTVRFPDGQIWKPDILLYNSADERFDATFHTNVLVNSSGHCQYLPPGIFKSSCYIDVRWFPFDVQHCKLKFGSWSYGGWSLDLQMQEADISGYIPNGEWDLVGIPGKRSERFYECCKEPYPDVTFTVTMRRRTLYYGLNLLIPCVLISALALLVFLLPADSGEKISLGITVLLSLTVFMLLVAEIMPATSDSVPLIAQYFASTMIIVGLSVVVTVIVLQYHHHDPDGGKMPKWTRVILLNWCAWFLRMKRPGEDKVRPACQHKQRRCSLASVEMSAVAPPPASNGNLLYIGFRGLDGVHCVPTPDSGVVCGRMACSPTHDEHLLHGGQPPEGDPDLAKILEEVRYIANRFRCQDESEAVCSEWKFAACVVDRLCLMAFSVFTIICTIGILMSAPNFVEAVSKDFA
experimental.details: Antagonist activity at human alpha7 nAChR expressed in Xenopus laevis oocytes assessed as inhibition of acetylcholine-induced current response administered for 12 secs followed by washout period for 181 secs by voltage clamp technique
measured.endpoint: IC50 (µM)

structure.as.smiles: CC[S+]1CCN(c2ccccc2)CC1.O=S(=O)([O-])C(F)(F)F
measurement.unit: µM
reported.value: 73

structure.as.smiles: CC[N+]1(CC)CCN(c2ccccc2)CC1
measurement.unit: µM
reported.value: 55

###

study.system: Neuronal acetylcholine receptor; alpha4/beta2 (Homo sapiens, UniProt P17787+P43681)
Sequence (P17787 whole entry): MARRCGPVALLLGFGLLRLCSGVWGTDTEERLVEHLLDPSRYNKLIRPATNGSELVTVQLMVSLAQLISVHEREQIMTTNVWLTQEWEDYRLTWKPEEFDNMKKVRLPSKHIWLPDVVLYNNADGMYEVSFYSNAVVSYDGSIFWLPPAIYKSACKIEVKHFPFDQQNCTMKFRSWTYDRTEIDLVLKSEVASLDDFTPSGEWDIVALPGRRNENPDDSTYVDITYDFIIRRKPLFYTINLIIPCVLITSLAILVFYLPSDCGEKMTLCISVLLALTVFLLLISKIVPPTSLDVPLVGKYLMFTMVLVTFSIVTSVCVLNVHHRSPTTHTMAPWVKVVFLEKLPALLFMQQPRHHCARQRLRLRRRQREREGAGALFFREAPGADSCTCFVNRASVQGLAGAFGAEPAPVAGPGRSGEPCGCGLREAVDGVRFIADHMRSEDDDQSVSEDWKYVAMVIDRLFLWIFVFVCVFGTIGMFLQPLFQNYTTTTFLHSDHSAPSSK
Sequence (P43681 whole entry): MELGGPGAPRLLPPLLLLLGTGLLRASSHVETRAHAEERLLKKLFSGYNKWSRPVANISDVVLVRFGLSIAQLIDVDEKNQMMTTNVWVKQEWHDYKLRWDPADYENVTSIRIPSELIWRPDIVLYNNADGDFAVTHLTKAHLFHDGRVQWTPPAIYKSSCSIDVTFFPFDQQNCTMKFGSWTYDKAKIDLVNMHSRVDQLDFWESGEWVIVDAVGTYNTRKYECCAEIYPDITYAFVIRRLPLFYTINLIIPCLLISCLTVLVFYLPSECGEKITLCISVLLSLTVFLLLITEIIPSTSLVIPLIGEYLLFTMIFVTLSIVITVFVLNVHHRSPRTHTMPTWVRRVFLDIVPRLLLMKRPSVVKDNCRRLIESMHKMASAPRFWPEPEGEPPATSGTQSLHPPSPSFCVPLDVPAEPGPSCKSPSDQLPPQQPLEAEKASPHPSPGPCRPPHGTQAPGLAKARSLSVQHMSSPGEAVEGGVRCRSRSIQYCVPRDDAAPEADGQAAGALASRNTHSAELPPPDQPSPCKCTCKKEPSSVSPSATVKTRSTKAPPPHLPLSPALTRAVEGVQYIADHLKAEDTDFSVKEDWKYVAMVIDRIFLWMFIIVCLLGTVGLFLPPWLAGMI
experimental.details: Antagonist activity at human alpha4beta2 nAChR expressed in Xenopus laevis oocytes assessed as inhibition of acetylcholine-induced current response administered for 6 secs followed by washout period for 241 secs by voltage clamp technique
pIC50: −log10 of the molar value.

structure.as.smiles: CC[S+]1CCN(c2ccccc2)CC1.O=S(=O)([O-])C(F)(F)F
pIC50: 4.29

###

study.system: Neuronal acetylcholine receptor subunit alpha-7 (Homo sapiens)
experimental.details: Partial agonist activity at human alpha7 nAChR expressed in Xenopus laevis oocytes assessed as induction of maximum current response administered for 12 secs followed by washout period for 181 secs by voltage clamp technique
measured.endpoint: EC50 (µM)

structure.as.smiles: CC[S+]1CCN(c2ccccc2)CC1.O=S(=O)([O-])C(F)(F)F
measured.endpoint: EC50
measurement.unit: µM
reported.value: 40
